Record form. Attribute: RP-LC retention time. Fill in for each entry.
Experiment: gradient 5% acetonitrile 3 min, to 50% in 2 min, to 85% in 15 min, held 3 min, 100 µL/min
Conditions: column: Zorbax Extend-C18 2.1 x 50 mm; eluents: water / acetonitrile, 0.1% formic acid
Record the value in s, omitting the unit from your answer.

Data request: Query (compound): `CCc1ccccc1S(=O)(=O)N1CCC(n2cnnc2CC)CC1` ; field requested: RP-LC retention time
Data returned: 595

Data request: Query: RP-LC retention time; subject: `CCOC(=O)c1ccccc1NC(=O)Cn1nc2ccc(-c3ccc(Cl)cc3)nn2c1=O`
Data returned: 989

Data request: Would you kindly share the measured RP-LC retention time for COc1nn(C)cc1C(=O)Nc1nnc(C2CC(=O)N(c3ccccc3)C2)o1 (centres undefined) ?
Data returned: 610

Data request: Quick check: RP-LC retention time of `CCN(Cc1ccc(OC)cc1)Cc1cc(=O)n2ccccc2n1` ?
Data returned: 585

Data request: Consider the compound `CCCN1C(=O)c2cc(S(=O)(=O)Nc3ccc(C)c(F)c3)ccc2Oc2cccnc21` and give its measured RP-LC retention time.
Data returned: 1120

Data request: Find the recorded RP-LC retention time belonging to `Cc1[nH]c(=O)[nH]c(=O)c1S(=O)(=O)NC(C)C` and report it.
Data returned: 581

Data request: Dear colleague, I am looking for the recorded RP-LC retention time of the following compound: `CCCN1CCN(C(=O)C2CCN(S(=O)(=O)c3cc(C(=O)N4CCCC4)n(C)c3)CC2)CC1`
Data returned: 574

Data request: // query RP-LC retention time value for entry `CCOc1ccc(-c2noc(Cn3ccn4nc(-c5ccccc5C)cc4c3=O)n2)cc1`
Data returned: 1160

Data request: # RP-LC retention time lookup, item `Cc1ccc2c(c1)N(Cc1cccc(F)c1)N=C(C(=O)N1CCCC1)S2(=O)=O`
Data returned: 876

Data request: Would you kindly share the measured RP-LC retention time for COc1ccc(NC(=O)N2CCCC(Cn3cnc4cccnc43)C2)cc1Cl (centres undefined) ?
Data returned: 692

Data request: Look up RP-LC retention time: `CCc1ccc(NC(=O)Cn2cc(C(=O)N3CCCC3)c(=O)c3ccc(C)nc32)cc1`
Data returned: 759

Data request: Item under review: `CN(C)c1cccc(/C=C(\C#N)c2ccccc2)c1` . Reported RP-LC retention time?
Data returned: 1100

Data request: Which value of RP-LC retention time has been reported for `COc1cc(C(=O)Nc2cccc(-c3cn4cccnc4n3)c2)cc(OC)c1OC` in the records?
Data returned: 642

Data request: Dear colleague, I am looking for the recorded RP-LC retention time of the following compound: `N#Cc1cccc(-c2cn3c(n2)N(C(=O)c2ccncc2)CCC3)c1`
Data returned: 611

Data request: Would you kindly share the measured RP-LC retention time for CC(C)CN1C(=O)c2cccn2CC1CNC(=O)c1cccn1C (centres undefined) ?
Data returned: 733

Data request: // returns reported RP-LC retention time for input `CCOc1cccc(-c2noc(Cn3ccnc3C)n2)c1`
Data returned: 647

Data request: Data request, read-out RP-LC retention time, for COc1ccc2c(c1)C1(CCN(C(=O)c3ccc(C#N)cc3)C1)C(=O)N2 (centres undefined)
Data returned: 762

Data request: Item under review: `Cc1noc([C@]23CN(CCc4ccccc4)CC[C@H]2CN(CCc2ccccc2)C3)n1` . Reported RP-LC retention time?
Data returned: 573

Data request: Entry `Cc1sc(-n2c(C)c3c(C)nnc(C)c3c2C)nc1-c1ccc(Br)cc1` : reported RP-LC retention time = ?
Data returned: 782

Data request: Name the recorded RP-LC retention time for `COc1ccc(Cl)cc1S(=O)(=O)N1CCC(n2cnnc2C)CC1` .
Data returned: 684

Data request: I am curious: what RP-LC retention time value has been reported for `COC(=O)c1ccc(C(=O)NCc2nc(C)no2)cc1` ?
Data returned: 637

Data request: // RP-LC retention time lookup, key: `O=C(Cn1nc2c(cc1=O)CCCCC2)NCCc1c[nH]c2ccc(F)cc12`
Data returned: 794

Data request: Sample `CCc1ccccc1S(=O)(=O)N1CCC2(CC1)C(=O)N(CC)c1ccccc12` — what was its RP-LC retention time?
Data returned: 1130

Data request: RP-LC retention time lookup needed for `Cc1nc(Nc2ccc(F)cn2)sc1C(=O)N1CCC2(CC1)OCCO2` , thanks.
Data returned: 686

Data request: Returns the measured RP-LC retention time for the input compound. Input: `COc1ccc(-c2cn3c(CC(=O)Nc4ccc(Br)cc4F)csc3n2)cc1OC`
Data returned: 821

Data request: # get_value(readout='RP-LC retention time', item= `Cc1csc(NC(=O)CSc2nnc(NC(=O)c3cc(C)on3)s2)n1` )
Data returned: 692

Data request: Which RP-LC retention time is reported for this compound? CC(C(=O)NCCc1c[nH]c2ccccc12)n1c2ccccc2c2cnn(C)c(=O)c21 (centres undefined)
Data returned: 829

Data request: RP-LC retention time for `CNC(=O)C1CCN(Cc2cc3ccccc3n2Cc2cccc(Cl)c2)CC1` ?
Data returned: 683

Data request: RP-LC retention time lookup needed for `CSc1ccc(CNC(=O)C2CCN(c3c(C#N)cnc4ccc(Cl)cc34)CC2)cc1` , thanks.
Data returned: 960

Data request: Give its RP-LC retention time value. Item: `COC(=O)c1ccc2c(=O)n(Cc3ccc(OC)cc3)c(N3CCC(C)CC3)nc2c1`
Data returned: 1330

Data request: Quick one: RP-LC retention time of `CCc1ccc(-c2csc(NC(=O)Cc3csc(-c4ccccc4)n3)n2)cc1` ?
Data returned: 1240

Data request: For `COc1cccc(CNC(=O)c2cc3c(=O)n(C)ccc3n2C)c1` , what is its reported RP-LC retention time?
Data returned: 663

Data request: Query: RP-LC retention time; subject: O=C1CC(c2noc(CCc3ccccc3)n2)CN1c1ccc(F)c(Cl)c1 (centres undefined)
Data returned: 1050

Data request: Give the measured RP-LC retention time of `Cc1oc(C2CCN(C(=O)Cc3c(F)cccc3Cl)CC2)nc1C(=O)N(C)C` .
Data returned: 747

Data request: Name the recorded RP-LC retention time for CCOC(=O)C1=C(C)NC2=C(C(=O)C(C(=O)OC)C(C)C2)C1c1ccc(F)cc1 (centres undefined) .
Data returned: 870

Data request: What does the record list as RP-LC retention time for CCC(C)NC(=O)c1cc(=O)[nH]c2c(C)cccc12 (centres undefined) ?
Data returned: 661

Data request: Could you share which RP-LC retention time value was measured for `COc1ccc(S(=O)(=O)Nc2ccc(-c3cn4ccc(C)nc4n3)cc2)cc1OC` ?
Data returned: 627

Data request: Sample `COc1ccc2[nH]cc(CCn3ccc4c(cnc5nc(-c6ccc(Cl)cc6)nn54)c3=O)c2c1` — what was its RP-LC retention time?
Data returned: 990

Data request: Given `CCc1ccccc1-n1c(-c2ccc(Cl)cc2)cn2c3c(=O)n(C)c(=O)n(C)c3nc12` , state its recorded RP-LC retention time.
Data returned: 1110
